METHOD SUMMARY: soluble on expression in E. coli; label from the status in PepcDB or PDB records
QUANTITY: soluble on expression in E. coli

Would you please look over these solved cases?
[[record]]
sequence_record = "MGSDKIHHHHHHMAFKNLKELSFEKSNYIKPKRFAYESNGRLCTWDFIESKDSVSVLLYHKELESFIFVRQFRIPLWYHQMHDKDYVKDDDMGYTIELCSGLVDKKLSLEEIAKEECIEELGYAPKNLEKIGDFYTGFGSGVSKQSFYFVEVDEKDKISSGGGVDDEEIEAVYVKVQDFEKKCKNMIRTPLLDFAYMWFLKEKWGKLKII"
measured_value = "not soluble"

[[record]]
sequence_record = "MSLTFSILARDPNNGRFGVAVATCHLAVGSTVPHIRSGVGAVATQAHTNPYLGICGLERLEHHADAQDVLNSLLLDDPQRDWRQFHLIDLDGRTACWTGVECGGWAGHRHHPNLSVAGNCLAGEVVLEAMEQTFLTSDPNWKLGRRLMTALQAGEQAGGDQRASSCTSAALQVSGEAAFPLLDLRVDFRSGAVEELMELYERSQDRWAQQWRDELLELPMLNRLVAEGHHHHHH"
measured_value = "soluble"

[[record]]
sequence_record = "MSLEPVQDDSVSGNFYISGKYMPSASHFGVFSAKEEKNPTVALYGLKQDWNGVSASSHADADFNNKGYSFKYENNPFLGFAGAIGYSMGGPRIEFEVSYETFDVKNQGGNYKNDAHRYCALDRKASSTNATASHYVLLKNEGLLDISLMLNACYDVVSEGIPFSPYICAGVGTDLISMFEAINPKISYQGKLGLSYSINPEASVFVGGHFHKVAGNEFRDISTLKAFATPSSAATPDLATVTLSVCHFGVELGGRFNFEGHHHHHH"
measured_value = "not soluble"

[[record]]
sequence_record = "MWFGEFGGQYVPETLIEPLKELEKAYKRFKDDEEFNRQLNYYLKTWAGRPTPLYYAKRLTEKIGGAKIYLKREDLVHGGAHKTNNAIGQALLAKFMGKTRLIAETGAGQHGVATAMAGALLGMKVDIYMGAEDVERQKMNVFRMKLLGANVIPVNSGSRTLKDAINEALRDWVATFEYTHYLIGSVVGPHPYPTIVRDFQSVIGREAKAQILEAEGQLPDVIVACVGGGSNAMGIFYPFVNDKKVKLVGVEAGGKGLESGKHSASLNAGQVGVFHGMLSYFLQDEEGQIKPTHSIAPGLDYPGVGPEHAYLKKIQRAEYVTVTDEEALKAFHELSRTEGIIPALESAHAVAYAMKLAKEMSRDEIIIVNLSGRGDKDLDIVLKVSGNV"
measured_value = "soluble"

[[record]]
sequence_record = "MGSDKIHHHHHHAATHAKTTKTVKTTGGAKTKAAKAKAIKSTSTHIKLQGASNARDLGGYVNRHGQKIKAHRLIRANSLSHLTKADQTKLVKTYHVATDVDLRTTTEQKMSPDVHMAGVKLVKANVFKSFGAFPDFSKKGAGAKMMEKTYHDAVTTAQGRKAYKSLFHQLLINPKGKAVLWHCSAGKDRAGMGTALVLSALKFDKKAIAQDYLKSNTYLAQTNKENLQKMEAGWKAQGKEVTPIVVENFRAQNAVKMAYLNTMYKAIDAKYGNMDNFLHKGLGLSNTQLKQLQANYLTSAK"
measured_value = "not soluble"

[[record]]
sequence_record = "MSSENDFVEFSSMFERIIQGRGDGLSRFLPVIVALAAREDDDDQGSTDQTTRRGDPLSPRFVMIGSRSGLDDFFSDGGKQGRSPALKSEVENMPRVVIGEDKEKYGGSCAICLDEWSKGDVAAEMPCKHKFHSKCVEEWLGRHATCPMCRYEMPVEEVEEEKKIGIWIGFSINAGDRRN"
measured_value = "not soluble"

[[record]]
sequence_record = "GSHMSVRIVDVREITKPISSPIRNAYIDFTKMTTSLVAVVTDVVREGKRVVGYGFNSNGRYGQGGLIRERFASRILEADPKKLLNEAGDNLDPDKVWAAMMINEKPGGHGERSVAVGTIDMAVWDAVAKIAGKPLFRLLAERHGVKANPRVFVYAAGGYYYPGKGLSMLRGEMRGYLDRGYNVVKMKIGGAPIEEDRMRIEAVLEEIGKDAQLAVDANGRFNLETGIAYAKMLRDYPLFWYEEVGDPLDYALQAALAEFYPGPMATGENLFSHQDARNLLRYGGMRPDRDWLQFDCALSYGLCEYQRTLEVLKTHGWSPSRCIPHGGHQMSLNIAAGLGLGGNESYPDLFQPYGGFPDGVRVENGHITMPDLPGIGFEGKSDLYKEMKALAE"
measured_value = "soluble"

[[record]]
sequence_record = "MSLNKTKDIAASPLCFVSPYPQLAKAAEALVAQLDYAVTIHQTTLNRILDELPLLESRGHQVLISRGGCAEILKKHSKLPVVEIKMSGYDILDALIPFKGQKGTVGIVGFSSVIKGCARVAEQLNINYKIFTLQGNDKETISCLKRQLASTPLDCIVGDTVCQDYFSPLGSQFRLLDSSPASITEALEEARSLYLAFRSQLLERHHLQLILDQFDKAVITLDDTGALLHYNKYASQLFKINASGEIYDASFLKQVLHQERHTLREGKTVSAKVVDTPQGAMVVNLYPVFAARQLSRVVLTMQTVSSLQGAEHHVRRQELSRRGLSAREGHHHHHH"
measured_value = "soluble"

[[record]]
sequence_record = "MDFSLTEEQELLLASIRELITTNFPEEYFRTCDQNGTYPREFMRALADNGISMLGVPEEFGGIPADYVTQMLALMEVSKCGAPAFLITNGQCIHSMRRFGSAEQLRKTAESTLETGDPAYALALTEPGAGSDNNSATTTYTRKNGKVYINGQKTFITGAKEYPYMLVLARDPQPKDPKKAFTLWWVDSSKPGIKINPLHKIGWHMLSTCEVYLDNVEVEESDMVGEEGMGFLNVMYNFEMERLINAARSTGFAECAFEDAARYANQRIAFGKPIGHNQMIQEKLALMAIKIDNMRNMVLKVAWQADQHQSLRTSAALAKLYCARTAMEVIDDAIQIMGGLGYTDEARVSRFWRDVRCERIGGGTDEIMIYVAGRQILKDYQNK"
measured_value = "soluble"


Req: Query soluble on expression in E. coli for `MSLVRMRVGKFDYLNNFLPYYFLNEKVEIVEANPREMASMLLSGRIDYAPVPAFFYLKNRERLRHYEFCVASEGKVLSVVVVSRKKELDDGSIAVTPHSLTSVNLLKILLAERGMKNMLVEVNTAKASEMLELCPHALVIGDEAIKARMIYKVVMDLGEEWYELTSLPAVFGISASLKETNAEEMDRKILMATEEGYRRFDEVVRAAEKAFKMPREFLEEYFRTLKFRLSSKERRGLDEFEKYCRDYGLLEEGHHHHHH`
Resp: not soluble
